# measurement-target: cellular BACE1 in CHOK1-huAPP cells
# procedure-text: cell-based or functional assay
measured-parameter: % Max Inhibition (%)
Write the answer as a number in %, unit excluded.

Look over these answered cases.
binder: 2H8 (antibody, human IgG1, V domains shown, chimeric, human IgG1/kappa; also called Clone 2H8; 2H8.01) VH: EVQLQQSGPELVKPGASVKLSCKASGYTFTNFWIHWLKQRPGQGLEWIGMIDPSDSYTKYNQKFKAKATLTVDTSSSTTYMHLSSLTSEDSAVYYCARSGVAFPYWGQRTLVTVSA VL: DIVMTQSQKFMSKSVGDTVSVTCKASQDVGRNVAWYQQKSGQSPKSLIYSASHRYSGVPDRFTGSGSGTDFTLTISNVQSEDLADYFCQQYNSYPYTFGGGTRLEIK
% Max Inhibition, %: 71
//
binder: 4A4 (antibody, human IgG1, V domains shown, chimeric, human IgG1/kappa; also called Clone 4A4) VH: EVKLMESGPGLVAPSQSLSITCTVSGFSLTSYPINWVRQPPGKGLEWLGVIWTGGSTNYNSALKSRLSISRDNSKSQVFLKMNSLQTDDTARYYCARWDGYFGAFDYWGQGTTVTVSS VL: DIVMTQTTSSLSASLGDRVTISCRASQDISKYLNWYQQKPDGTVKLLIYYTSRLHSGVPSRFSGSGSGTDYSLTISNLEQEDIATYFCQQSLSLPYTFGGGTRLEIK
% Max Inhibition, %: 53

Field: next binder
*Q* Return value of % Max Inhibition for input 4H10 (antibody, human IgG1, V domains shown, chimeric, human IgG1/kappa; also called Clone 4H10) VH: EIQLQQSGPELKKPGETVKISCKTSGYTFTTYGMTWVKQAPGKGLKWMGWINTYSGVPIYADDFKGRSAFSLETSASTAYLQINNLENEDTATYFCARRGSTAHYFDYWGQGTTVTVSS VL: DIVLTQSHKFMSTSVGDRVSITCKASQDVSTAVAWYQQKPGQSPKLLIYWASTRHTGVPDRFTGSGSGTDYTLTISSVQAEDLALYYCQQHYSTPYTFGGGTKLELK , no commentary.
*A* 46
